Target: Hap1 (UniProt P0CE41)
Sequence (P0CE41 whole entry): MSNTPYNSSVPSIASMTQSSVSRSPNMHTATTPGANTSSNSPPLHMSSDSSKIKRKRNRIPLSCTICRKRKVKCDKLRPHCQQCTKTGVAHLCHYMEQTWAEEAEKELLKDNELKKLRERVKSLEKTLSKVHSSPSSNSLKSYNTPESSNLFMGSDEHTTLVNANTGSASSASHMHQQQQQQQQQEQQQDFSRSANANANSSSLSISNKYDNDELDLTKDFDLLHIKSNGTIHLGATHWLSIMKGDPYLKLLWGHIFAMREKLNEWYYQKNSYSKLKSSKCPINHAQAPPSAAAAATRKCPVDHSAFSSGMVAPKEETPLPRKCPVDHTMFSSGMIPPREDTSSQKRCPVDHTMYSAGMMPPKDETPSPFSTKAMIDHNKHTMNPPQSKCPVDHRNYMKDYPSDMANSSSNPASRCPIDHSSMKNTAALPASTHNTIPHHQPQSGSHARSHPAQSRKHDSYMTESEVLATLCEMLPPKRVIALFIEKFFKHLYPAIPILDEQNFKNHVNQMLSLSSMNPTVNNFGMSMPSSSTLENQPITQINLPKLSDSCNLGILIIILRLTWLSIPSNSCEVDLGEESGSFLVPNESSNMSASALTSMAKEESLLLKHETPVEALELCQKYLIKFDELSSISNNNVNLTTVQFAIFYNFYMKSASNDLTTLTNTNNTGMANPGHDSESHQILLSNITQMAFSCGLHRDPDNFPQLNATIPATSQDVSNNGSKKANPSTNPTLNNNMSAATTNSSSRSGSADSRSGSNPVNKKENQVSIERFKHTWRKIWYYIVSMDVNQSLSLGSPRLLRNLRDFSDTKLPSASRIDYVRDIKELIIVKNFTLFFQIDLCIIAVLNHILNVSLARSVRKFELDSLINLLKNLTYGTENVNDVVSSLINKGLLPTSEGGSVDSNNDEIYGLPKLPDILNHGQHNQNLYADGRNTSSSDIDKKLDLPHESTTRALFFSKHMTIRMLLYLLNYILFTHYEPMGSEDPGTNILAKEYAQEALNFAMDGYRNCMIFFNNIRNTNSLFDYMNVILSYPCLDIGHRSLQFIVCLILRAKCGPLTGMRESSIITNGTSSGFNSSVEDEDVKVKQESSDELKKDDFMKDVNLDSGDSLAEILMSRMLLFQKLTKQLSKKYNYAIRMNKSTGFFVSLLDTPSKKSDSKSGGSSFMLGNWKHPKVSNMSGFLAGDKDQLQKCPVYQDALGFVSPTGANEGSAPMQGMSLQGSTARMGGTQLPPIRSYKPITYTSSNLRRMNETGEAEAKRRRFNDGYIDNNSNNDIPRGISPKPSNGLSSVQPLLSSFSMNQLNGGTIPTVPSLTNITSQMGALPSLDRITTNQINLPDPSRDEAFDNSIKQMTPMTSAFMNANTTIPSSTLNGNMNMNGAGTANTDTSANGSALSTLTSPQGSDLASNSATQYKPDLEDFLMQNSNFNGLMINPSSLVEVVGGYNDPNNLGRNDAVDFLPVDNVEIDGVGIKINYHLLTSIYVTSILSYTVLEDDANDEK
Experiment: PBM E-score (8-mer binding enrichment) (E-score (-0.5 to 0.5)); higher = stronger / more preferred TF binding
Details: protein concentration: 200 nM; construct: GST-DNA-binding domain
Over roughly 33,000 sequences, “E-score (-0.5 to 0.5)” has its median near -0.053; the highest 2% begin near 0.37. The list comes from a sample in which the highest values are over-represented; it also holds close analogues and randomly drawn sequences.
Observed Property: PBM E-score

Seq String | Observed Property | Result
GATTCGGA | PBM E-score | 0.299
GCGCCGGA | PBM E-score | 0.368
CATATCGA | PBM E-score | 0.0363
GCATCGGA | PBM E-score | 0.383
CCGGGGAA | PBM E-score | 0.372
AACCGGAG | PBM E-score | 0.425
AGCGGTAA | PBM E-score | 0.247
GGGGGTAC | PBM E-score | 0.215
CATATCGG | PBM E-score | 0.404
TACGCCGA | PBM E-score | 0.301
AATATCGA | PBM E-score | 0.0281
TCCGGGAA | PBM E-score | 0.376
GGCGGTAC | PBM E-score | 0.0136
CATATCGC | PBM E-score | 0.179
CGCGAATA | PBM E-score | 0.182
TCCCGGCA | PBM E-score | 0.277
GCTTTCCA | PBM E-score | -0.11
GAGCTGCA | PBM E-score | -0.00591
AATCCGAT | PBM E-score | 0.401
CCGTCGGA | PBM E-score | 0.335
AATCCGAA | PBM E-score | 0.366
CCGCCGGA | PBM E-score | 0.402
CCGCCGAA | PBM E-score | 0.38
GCCGGTAC | PBM E-score | 0.293
ACGCCGGG | PBM E-score | 0.306
AAGGCCGG | PBM E-score | 0.408
AAGTCTGA | PBM E-score | -0.412
AGTAGTAC | PBM E-score | 0.105
GCCGGTAA | PBM E-score | 0.422
GCGGAAAA | PBM E-score | 0.286
CGTGTTTA | PBM E-score | 0.038
GGATCGGA | PBM E-score | 0.384
AGCTCGGG | PBM E-score | 0.363
ACGCAACT | PBM E-score | 0.064
GGGTGGAC | PBM E-score | 0.132
GTCCTACA | PBM E-score | 0.145
AGTCCGTG | PBM E-score | 0.299
AGTCCAAG | PBM E-score | -0.404
CCGGAAGA | PBM E-score | 0.365
ACGCCGCC | PBM E-score | 0.256
CTCTGTCA | PBM E-score | -0.296
GCCGGTCA | PBM E-score | 0.177
GAGGGCGA | PBM E-score | 0.0665
CTACCAGC | PBM E-score | -0.319
ACCGGTAG | PBM E-score | 0.228
ACGGAACA | PBM E-score | 0.241
ACCGGTAT | PBM E-score | 0.424
AATTCGGG | PBM E-score | 0.287
ACATCGGA | PBM E-score | 0.265
AGTCCTAT | PBM E-score | -0.0943
AACGCCGA | PBM E-score | 0.447
CATTCGGA | PBM E-score | 0.321
ACGCCGGA | PBM E-score | 0.381
CCGCCGCA | PBM E-score | 0.135
CGGGGGAA | PBM E-score | 0.354
GAGACCGC | PBM E-score | 0.0393
ATCTGCAA | PBM E-score | -0.287
AATCCGAC | PBM E-score | 0.363
AGTTTCCG | PBM E-score | 0.39
CCCCGGAC | PBM E-score | 0.397
CGATCGGA | PBM E-score | 0.354
AACTCCCA | PBM E-score | -0.00143
AAGGCCCG | PBM E-score | 0.196
AGTCCGAT | PBM E-score | 0.432
AACGCCGC | PBM E-score | 0.355
AATATCCG | PBM E-score | 0.414
ACGCCGGC | PBM E-score | 0.405
AAGGCCGC | PBM E-score | 0.135
AACGCCGT | PBM E-score | 0.273
GCGTCGGA | PBM E-score | 0.375
GACTCGGC | PBM E-score | 0.186
ACCCCCAG | PBM E-score | -0.25
GGCGGTAA | PBM E-score | 0.373
ATTATCCA | PBM E-score | -0.0526
ACGGGGAG | PBM E-score | -0.0069
